target: GST-Bcl-2 (Homo sapiens, UniProt P10415); test: TR-FRET binding assay, GST-Bcl-2 with F-Bak peptide probe; settings: TR-FRET Binding Affinity, GST-Bcl-2, F-Bak peptide probe
Sequence (P10415 whole entry): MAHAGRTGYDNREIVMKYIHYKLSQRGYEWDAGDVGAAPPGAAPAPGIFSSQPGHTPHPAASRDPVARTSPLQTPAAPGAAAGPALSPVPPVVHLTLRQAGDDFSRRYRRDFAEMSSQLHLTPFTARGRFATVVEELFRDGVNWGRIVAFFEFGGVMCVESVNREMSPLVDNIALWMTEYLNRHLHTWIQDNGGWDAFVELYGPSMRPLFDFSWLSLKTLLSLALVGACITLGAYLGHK
pKi: −log10 of the molar value.
Consider the reported pKi of an entry and match it to a band in low band: < 9; middle band: ≥ 9 and < 10; high band: ≥ 10

- SMILES CODE: "O=C(NS(=O)(=O)c1ccc(NCCCN2CCCC2)c([N+](=O)[O-])c1)c1ccc(N2CCN(CC3=C(c4ccc(Cl)cc4)CCCCCC3)CC2)cc1Oc1cccc2[nH]ccc12"
  CATEGORY LABEL: "low band"

Each molecule maps to one class by pKi. Which class for `COCCOCCNc1ccc(S(=O)(=O)NC(=O)c2ccc(N3CCN(CC4=C(c5ccc(Cl)cc5)CC(C)(C)CC4)CC3)cc2Oc2cccc3[nH]ccc23)cc1[N+](=O)[O-]` ?
middle band

And the next one, `CN1CCC(Nc2ccc(S(=O)(=O)NC(=O)c3ccc(N4CCN(CC5=C(c6ccc(Cl)cc6)CCCCCC5)CC4)cc3Oc3cccc4[nH]ccc34)cc2[N+](=O)[O-])CC1` ?
low band

And `CN1CCC(Oc2ccc(S(=O)(=O)NC(=O)c3ccc(N4CCN(CC5=C(c6ccc(Cl)cc6)CC(C)(C)CC5)CC4)cc3Oc3ccc4[nH]ccc4c3)cc2[N+](=O)[O-])CC1` ?
middle band

// repeat for `CN(C)CCOc1cccc(-c2ccc(Cl)cc2)c1CN1CCN(c2ccc(C(=O)NS(=O)(=O)c3ccc(NC4CCN(C5CCOCC5)CC4)c([N+](=O)[O-])c3)c(Oc3cccc4[nH]ccc34)c2)CC1` and report
high band

# iterate: `CC1(C)CCC(CN2CCN(c3ccc(C(=O)NS(=O)(=O)c4ccc(NCCCN5CCOCC5)c([N+](=O)[O-])c4)c(Oc4ccccc4)c3)CC2)=C(c2ccc(Cl)cc2)C1`
middle band

----------
target: UniProt:P10415; assay: TR-FRET binding assay, GST-Bcl-2 with F-Bak peptide probe; conditions: TR-FRET Binding Affinity, GST-Bcl-2, F-Bak peptide probe
pKi: −log10 of the molar value.
The label depends only on pKi: rule met if it is at least 9, rule not met if it is smaller.

Below, 5 molecules whose answers are already recorded.
- MOLECULE: "CC1(C)CCC(CN2CCN(c3ccc(C(=O)NS(=O)(=O)c4cnc(OCC5(F)CCN(CC#N)CC5)c(Cl)c4)c(Oc4cccc5[nH]ncc45)c3)CC2)=C(c2ccc(Cl)cc2)C1"
  CATEGORY LABEL: "rule met"
- MOLECULE: "CC1(C)CCC(CN2CCN(c3ccc(C(=O)NS(=O)(=O)c4ccc(NC5CCC(N6CCOCC6)CC5)c([N+](=O)[O-])c4)c(Oc4ccc5[nH]ccc5c4)c3)CC2)=C(c2ccc(Cl)cc2)C1 (stereo not shown)"
  CATEGORY LABEL: "rule met"
- MOLECULE: "CC1(C)CCC(CN2CCN(c3ccc(C(=O)NS(=O)(=O)c4ccc(N[C@@H]5CCN(C(CF)CF)C5)c([N+](=O)[O-])c4)c(Oc4cccc5[nH]ncc45)c3)CC2)=C(c2ccc(Cl)cc2)C1"
  CATEGORY LABEL: "rule met"
- MOLECULE: "COCCCNc1ccc(S(=O)(=O)NC(=O)c2ccc(N3CCN(CC4=C(c5ccc(Cl)cc5)CC(C)(C)CC4)CC3)cc2Oc2ccc3[nH]ccc3c2)cc1[N+](=O)[O-]"
  CATEGORY LABEL: "rule not met"
- MOLECULE: "CN1CC[C@H](Nc2ccc(S(=O)(=O)NC(=O)c3ccc(N4CCN(CC5=C(c6ccc(Cl)cc6)CC(C)(C)CC5)CC4)cc3Oc3ccc4[nH]ccc4c3)cc2[N+](=O)[O-])C1"
  CATEGORY LABEL: "rule met"

Entry `CC1(C)CCC(CN2CCN(c3ccc(C(=O)NS(=O)(=O)c4ccc(NCC5CCOCC5)c([N+](=O)[O-])c4)c(Oc4ccc5[nH]ccc5c4)c3)CC2)=C(c2ccc(Cl)cc2)C1` : is its pKi no less than 9?
rule met

Now try `CC1(C)CCC(CN2CCN(c3ccc(C(=O)NS(=O)(=O)c4ccc(NC5CCC(F)(F)CC5)c([N+](=O)[O-])c4)c(Oc4ccc5[nH]ccc5c4)c3)CC2)=C(c2ccc(Cl)cc2)C1` .
rule not met

Would you kindly repeat that for `CC1(C)CCC(CN2CCN(c3ccc(C(=O)NS(=O)(=O)c4ccc(OCCC5CCOCC5)c([N+](=O)[O-])c4)c(Oc4cccc5[nH]ccc45)c3)CC2)=C(c2ccc(Cl)cc2)C1` ?
rule not met
